Give % inhibition female (individual replicates) R4 for every item shown.
# System: P. falciparum female gametocytes
# protocol text: P. falciparum Dual Gamete Formation Assay (PfDGFA), female readout (Pfs25-positive female gametes)
# Format: cell-based, Plasmodium falciparum NF54
# assay context: 2µM, 24h preincubation with gametocytes prior to induction of gametogenesis; replicate R4
# Experimental: […] The Pf DGFA was performed as described in Delves et al. 2016 [17]. […] Exflagellation was recorded by capturing 10 frames over 1 s under brightfield illumination using a x4 objective with a 1.5x zoom (effectively x6) attached to an automated Nikon Ti fluorescence microscope. […] The plates were then returned to the microscope and female gametes imaged at x6 using fluorescence microscopy. […]
Param answer (str): number followed by unit.

# example entries with known answers
compound | study target | result
CCc1cc2c3c(N)nc(N)nc3ccc2n1CC | P. falciparum female gametocytes | 10.4%
Br.CCCC1N=C(N)N=C(N)N1c1ccc(CC)cc1 (centres unmarked) | P. falciparum female gametocytes | 12.0%

Go through the list and state % inhibition female (individual replicates) R4 for each entry.
1. CC(Cc1ccc(CNC(=O)c2ccc(CC(C)NCCc3cccc(Cl)c3)cc2)cc1)NCCc1cccc(Cl)c1 (centres unmarked)
2. C[C@@H](Oc1cc(-n2cnc3ccc(OCC4CCN(S(C)(=O)=O)CC4)cc32)sc1C(N)=O)c1ccccc1C(F)(F)F
3. COc1ccc(-c2cccc(CNC3CCN(C)CC3)c2)cc1S(=O)(=O)NCc1ccccc1.O=C(O)C(F)(F)F
4. CC1(CCN2CCC(c3c[nH]c4cnccc34)CC2)CCCc2c(Br)cccc2C1=O.Cl (centres unmarked)
5. CCc1nc(N)nc(N)c1CCCOc1ccccc1Cl.Cl

1. -1.7%
2. 50.4%
3. 20.5%
4. 19.7%
5. 2.3%

Specify the recorded % inhibition female (individual replicates) R4 for `CC(=O)c1cccc(S(=O)(=O)NCCCNc2nc3cc(C)cc(C)c3cc2C#N)c1` , system: P. falciparum female gametocytes.
33.9%

---

# Tested on: P. falciparum female gametocytes
# protocol text: P. falciparum Dual Gamete Formation Assay (PfDGFA), female readout (Pfs25-positive female gametes)
# Type: cell-based, Plasmodium falciparum NF54
# assay context: 2µM, 24h preincubation; number of replicates with >50% inhibition in the female readout
measurement type: HitlevelF
Answers are plain numbers.

# example entries with known answers
molecule | HitlevelF
Nc1cc2c(C3CCN(CC4CCN(C(=O)/C=C/c5ccc(Cl)c(Cl)c5)CC4)CC3)c[nH]c2cn1 | 0
CC1(C)N=C(N)N=C(N)N1c1ccc(Br)cc1.Cl | 0
Cc1cccc2nc(-c3ccc(-c4ccc(CN5CCN(C6CCN(C)CC6)CC5)cc4)s3)[nH]c12.O=C(O)C(F)(F)F | 0
CCC1CN2CCc3cc(OC)c(OC)cc3C2CC1CC1NCCc2cc(OC)c(OC)cc21.Cl (stereo not shown) | 4

Go through the list and state HitlevelF for each entry.
1. Cc1c(Cn2ncc(N3CCC(N)CC3)c(Cl)c2=O)cccc1NC(=O)Nc1ccc(-c2ccccc2)cc1.O=C(O)C(F)(F)F
2. CC(C)(C)Nc1cc(C2CC2)nc(-c2ccccn2)n1
3. Nc1ccc2[nH]cc(C3CCN(CCC4CCN(C(=O)/C=C/c5ccc(Cl)c(Cl)c5)CC4)CC3)c2n1
4. CC(C)COc1ccc2ccccc2c1CNCCCCCCNCc1c(OCC(C)C)ccc2ccccc12.CS(=O)(=O)O
5. Cl.c1cc(CNC2Cc3ccccc3C2)cc(-c2cnc(N3CCNCC3)nc2)c1
6. O=C(O)C(F)(F)F.O=S(=O)(NCCN1CCCC1)c1ccc(-c2ccc(CNC3Cc4ccccc4C3)cc2)s1

1: 2; 2: 0; 3: 0; 4: 1; 5: 0; 6: 0

---

# System: P. falciparum female gametocytes
# protocol text: P. falciparum Dual Gamete Formation Assay (PfDGFA), female readout (Pfs25-positive female gametes)
# Type: cell-based, Plasmodium falciparum NF54
# assay context: Plasmodium falciparum; PfDGFA, 24 h incubation with gametocytes before induction, female gamete readout; read-out: Female IC50
measurement type: IC50 (µM)
Numbers only, in µM.

# example entries with known answers
molecule | unit descriptor | numeric value
COc1ccc(Nc2ncc(OC)c(Nc3ccccc3C(N)=O)n2)cc1N1CCN(C)CC1.O=CO | µM | 7.91
CCn1c(-c2nonc2N)nc2c(-c3ccccc3)ncc(OCCCNCCCN3CCOCC3)c21.O=C(O)C(F)(F)F | µM | 6.49
Cc1sc2ncnc(Sc3nnc(N)s3)c2c1C | µM | 0.74
CCN(CC)CCN(Cc1ccc(-c2ccc(C(F)(F)F)cc2)cc1)C(=O)Cn1cc(Cc2cnn(C)c2)c(=O)nc1/C=C/c1ccc(F)cc1.O=C(O)C(O)C(O)C(=O)O | µM | 7.16
CC(C)(CNC(=O)[C@H]1CCCCN1)c1nc(-c2ccc(Cl)c(O)c2)c(-c2ccncc2)[nH]1.Cl | µM | 1.02
Cc1cccc2nc(-c3ccc(-c4cccc(CNCCN5CCNCC5)c4)cc3)[nH]c12.O=C(O)C(F)(F)F | µM | 9.11
Cc1ccc(-n2c(Sc3ncnc4sccc34)nnc2N2CCCC2)cc1 | µM | 0.25
O=C(O)C(F)(F)F.O=c1[nH]ccc2nc(N[C@@H]3CCCNC3)nc(Nc3ccc(S(=O)(=O)N4CCOCC4)cc3)c12 | µM | 8.17

Go through the list and state IC50 for each entry.
1. CN(C)c1ccnc2ccc(NC(=O)Nc3ccnc4ccccc34)cc12
2. CN1CCN(c2ccc(Nc3ncc(C#N)c(Nc4ccccc4C(N)=O)n3)cc2)CC1.Cl
3. FC(F)(F)c1ccc2[nH]c(-c3ccc(-c4ccc(CNCCN5CCNCC5)cc4)cc3)nc2c1.O=C(O)C(F)(F)F
4. CCN(CC)CCN(Cc1ccc(-c2ccc(C(F)(F)F)cc2)cc1)C(=O)Cn1cc(Cc2cnn(C)c2)c(=O)nc1/C=C/c1cccc(F)c1F.O=C(O)C(O)C(O)C(=O)O
5. C=CCN(C(=O)c1ccc(Cl)c([N+](=O)[O-])c1)c1nc(-c2ccccc2)cs1

[5.92, 9.17, 6.08, 4.1, 0.31]

---

# System: HepG2 cells
# protocol text: HepG2 cytotoxicity counter-screen
# assay context: cytotoxic activity against HepG2 cells
Define the label as Fulfilled when Tox50 is strictly less than 20 µM and as Not fulfilled in all remaining cases.

smiles entry | class assignment
COc1cc2ccccc2cc1CCNCCCCNCCc1cc2ccccc2cc1OC.CS(=O)(=O)O | Fulfilled
Oc1cccc(CNCCCN(Cc2ccccc2)c2ccccc2)c1 | Fulfilled
Cc1cccc(Nc2nc(NCCCCN)nc3cc[nH]c(=O)c23)c1.O=C(O)C(F)(F)F | Not fulfilled
COc1cc(Nc2nccc(-c3c(-c4cccc(NC(=O)c5c(F)cccc5F)c4)nn4ncccc34)n2)cc(OC)c1OC | Fulfilled
COc1cc(NC(=O)c2sc(-c3ccc(Cl)cc3)cc2NC(=O)c2ccncc2)ccc1OCCN1CCCC1 | Fulfilled
O=C(O)C(=O)O.Oc1c(CN2CCC(Cc3ccccc3)CC2)cc(Cl)c2cccnc12 | Fulfilled
COc1ccc(-c2cnc(N)c(-c3ccc(C(N)=O)cc3)c2)cc1OC | Fulfilled
Cc1ccc(C)c(S(=O)(=O)NCC2CCN(Cc3ccc(O)cc3)CC2)c1.O=C(O)C(F)(F)F | Not fulfilled
O=C(O)CCSSc1cccc[n+]1[O-] | Not fulfilled

For `CS(=O)(=O)O.FC(F)(F)COc1ccc(CNCCCCCCNCc2ccc(OCC(F)(F)F)c3ccccc23)c2ccccc12` , is the recorded Tox50 below the cut-off of 20 µM?
Fulfilled

---

# System: P. falciparum male gametocytes
# protocol text: P. falciparum Dual Gamete Formation Assay (PfDGFA), male readout (exflagellation)
# Format: cell-based, Plasmodium falciparum NF54
# assay context: HepG2 Tox50 versus male IC50
Give Selectivity Ratio M for every item shown.
One number for each entry.

molecule | study target | Selectivity Ratio M
CCN(CC)CCOc1ccc(C(O)(C#CC(O)(c2ccc(Br)cc2)c2ccc(OCCN(CC)CC)cc2)c2ccc(Br)cc2)cc1 (centres unmarked) [TCMDC-137199] | P. falciparum male gametocytes | 3.23

Go through the list and state Selectivity Ratio M for each entry.
1. Cl.Clc1ccc(OCCC2CCN(CCCCCCCN3CCC(CCOc4ccc(Cl)c(Cl)c4)CC3)CC2)cc1Cl [TCMDC-138967]
2. COc1cc(Nc2nccc(-c3c(-c4cccc(NC(=O)c5c(F)cccc5F)c4)nn4ncccc34)n2)cc(OC)c1OC [TCMDC-135684]
3. N=C(N)NCCN(Cc1ccccc1)c1ccc(Cl)cc1 [TCMDC-131838]
4. CCn1c(-c2nonc2N)nc2c(-c3ccccc3)ncc(OCCCNCCCN3CCOCC3)c21.O=C(O)C(F)(F)F [TCMDC-135858]
5. COc1ccc(NC(=O)c2cccc(Br)c2)cc1N1CCN(CCCCCCCN2CCN(c3cc(NC(=O)c4cccc(Br)c4)ccc3OC)CC2)CC1.Cl [TCMDC-139020]
6. Nc1cc(C=Cc2ccc([N+](=O)[O-])o2)nc2ccccc12 [TCMDC-142295]
7. CN(C)CCOc1ccc(NC(=O)NC(C)(C)c2nc(-c3ccc(Cl)c(O)c3)c(-c3ccncc3)[nH]2)cc1.Cl [TCMDC-140744]

[2.82, 4.28, 72.58, 11.73, 4, 16.74, 89.77]
